Data credit: PubChem BioAssay (NCATS)

protocol notes: Cell Viability - Jurkat (AID 426);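 further: potency means the concentration at half of the fitted maximal effect; cells exposed to compound for 40 hours at 37 °C before ATP read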
measurement context: qHTS
Inconclusive results are not listed. The source made the active and inactive calls.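 How the source made its calls: active means dose-dependent loss of cell ATP signal giving a full or clear fitted curve, ranked by lower potency value; inconclusive means weak partial curve or response only at the top dose; inactive means no loss of viability signal.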
Outcome (select one): Y = active, N = inactive

c1ccc2c(c1)ccc1ncccc12 ... N
CCCCC/C=C/C=C/C=O ... Y
CC(=O)Nc1ccc(C)cc1 ... N
CC(=O)c1cccc([N+](=O)[O-])c1 ... N
Cc1ccc(Cl)cc1N ... N

Prompt: Could you check what this test reported for CN(C)CCCNCCCN ?
Response: N

Prompt: Could you check what this test reported for ClC/C=C/CCl ?
Response: N

Prompt: Could you check what this test reported for CC(O)CC(C)O (configuration not stated) ?
Response: N

Prompt: Could you check what this test reported for CCCOCC(C)OCC(C)O (configuration not stated) ?
Response: N

Prompt: Could you check what this test reported for CCC(C)=O ?
Response: N

Prompt: Could you check what this test reported for CC(C)(C)OC=O ?
Response: N

Prompt: Could you check what this test reported for OC1CCCC1 ?
Response: N

---

protocol notes: Cell Viability - LYMP2-009 (AID 968);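 further: cells exposed to compound for 24 h at 37 °C; 0% = DMSO alone and the full-kill end = tetraoctylammonium bromide at 92 µM; nearly all actives have a fitted effect of over 55% in size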
measurement context: LYMP2-009 lymphoblastoid cell viability; series mostly up to 92.2 µM
Results filed as inconclusive are left out. Activity calls are given as the source filed them. The call rests on the fitted dose curve; in most records, active means well fitted cell-killing curve with a large enough effect; inconclusive means small, poorly fitted or top-dose-only effect; inactive means flat fitted curve, though single readings scatter.
parameter measured: outcome

Record excerpt, results attached:
c1ccc(Nc2ccccc2)cc1 ... inactive
O=C(O)c1cccc([N+](=O)[O-])c1 ... inactive
O=C(O)CCSSCCC(=O)O ... inactive
FB(F)F ... inactive
CCCCC(=O)N(C)C ... inactive
c1ccc2c(c1)Oc1ccccc1S2 ... inactive
Oc1c(Cl)ccc(Cl)c1Cl ... inactive
CC(O)COC(C)(C)C (stereo not drawn) ... inactive
C=CCn1c(=O)n(CC=C)c(=O)n(CC=C)c1=O ... inactive
O=C(O)c1ccc(CO)o1 ... inactive

Prompt: # input molecule: CC(O)CC(C)O (stereo not drawn) ; wanted: its outcome
Response: inactive

Prompt: # input molecule: O=[N+]([O-])c1ccc(CCO)cc1 ; wanted: its outcome
Response: inactive

Prompt: # input molecule: C=CC(=O)OCCCC ; wanted: its outcome
Response: inactive

---

protocol notes: Cellular Toxicity (caspase-3) Hek293 (AID 664);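 further: cells exposed to compound for 16 h at 37 °C before readout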
measurement context: HEK293 caspase-3 activation, DMSO = 0%, 100 µM tamoxifen = 100%; at 92.2 µM (top of the series)
Records with an inconclusive call do not appear.
parameter measured: caspase-3 activation (%)
Value expressed in %; do not type the unit.

O=[N+]([O-])c1ccc(CCO)cc1 ... -3.11
O=C1OC(=O)c2c(Br)c(Br)c(Br)c(Br)c21 ... 1.35
O=C1OC(=O)c2c(Cl)c(Cl)c(Cl)c(Cl)c21 ... 1.4
O=C1CCCCC1 ... 0.988

Prompt: # input molecule: COc1ccc(OC)cc1 ; wanted: its caspase-3 activation
Response: 0.282

Prompt: # input molecule: O=C1NC(=O)c2cc([N+](=O)[O-])ccc21 ; wanted: its caspase-3 activation
Response: -0.133

Prompt: # input molecule: CCNc1ccccc1 ; wanted: its caspase-3 activation
Response: -0.687

Prompt: # input molecule: CC/C=C/C#N ; wanted: its caspase-3 activation
Response: 1.85

Prompt: # input molecule: Nc1nc2ccccc2[nH]1 ; wanted: its caspase-3 activation
Response: 0.0156

Prompt: # input molecule: CC=O ; wanted: its caspase-3 activation
Response: 2.27

Prompt: # input molecule: Nc1ccc(F)cc1F ; wanted: its caspase-3 activation
Response: 0.487

---

target of assay: Nuclear receptor ROR-gamma (Homo sapiens) (UniProt P51449)
Sequence (P51449 whole entry, looked up): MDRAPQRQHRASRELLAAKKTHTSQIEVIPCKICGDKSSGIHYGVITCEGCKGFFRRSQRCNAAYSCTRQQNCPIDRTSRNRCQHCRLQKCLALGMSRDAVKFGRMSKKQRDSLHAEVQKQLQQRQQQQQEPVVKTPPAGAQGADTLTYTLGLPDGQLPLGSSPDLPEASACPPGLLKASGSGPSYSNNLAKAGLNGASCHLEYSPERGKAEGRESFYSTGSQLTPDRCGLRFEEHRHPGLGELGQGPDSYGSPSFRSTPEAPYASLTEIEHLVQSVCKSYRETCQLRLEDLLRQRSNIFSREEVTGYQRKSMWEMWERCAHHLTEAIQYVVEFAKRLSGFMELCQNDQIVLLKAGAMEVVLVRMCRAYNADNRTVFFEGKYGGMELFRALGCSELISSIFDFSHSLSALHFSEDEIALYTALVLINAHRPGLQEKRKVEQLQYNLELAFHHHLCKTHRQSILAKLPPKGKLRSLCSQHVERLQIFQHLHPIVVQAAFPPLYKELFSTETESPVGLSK
protocol notes: qHTS assay for small molecule antagonists of the retinoid-related orphan receptor gamma (ROR-gamma) signaling pathway (AID 651802);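 further: CHO cells with doxycycline-induced ROR-gamma expression; luciferase reporter luminescence driven by ROR response element; on the % scale 0 is the no-effect control and ±100 the full control effect; nearly all actives have a fitted effect of over 60% in size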
measurement context: ROR-gamma antagonist cell reporter assay; series mostly up to 92.2 µM
Inconclusive results are not listed. Activity calls are given as the source filed them. The call rests on the fitted dose curve; in most records, active means well fitted inhibition curve with a large enough effect; inconclusive means small, poorly fitted or top-dose-only effect; inactive means no such curve, though single readings can be large or run the other way.
parameter measured: outcome

BrC(Br)C(Br)Br ... inactive
CC=O ... inactive
CCOCCO ... inactive

---

protocol notes: Cell Viability - HUV-EC-C (AID 542);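 further: cells exposed to compound for 40 hours; on the % scale 0 is the no-effect control and ±100 the full control effect; nearly all actives have a fitted effect of over 35% in size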
measurement context: HUV-EC-C endothelial cell viability, qHTS; series mostly up to 92.2 µM
Inconclusive results are not listed. Calls of active or inactive are those of the source. The call rests on the fitted dose curve; in most records, active means well fitted cell-killing curve with a large enough effect; inconclusive means small, poorly fitted or top-dose-only effect, or effect the other way; inactive means flat fitted curve, though single readings scatter.
parameter measured: outcome

C=CC(=O)OCCCC ... inactive
CC(C)N=C=NC(C)C ... inactive
O=[N+]([O-])c1ccc(NCCO)c(OCCO)c1 ... inactive

---

protocol notes: Cell Viability - LYMP2-004 (AID 966);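 further: cells exposed to compound for 24 h; plate controls were DMSO only for no effect and tetraoctylammonium bromide control for full effect; nearly all actives have a fitted effect of over 65% in size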
measurement context: LYMP2-004 lymphoblastoid cell viability, qHTS; series mostly up to 92.2 µM
Inconclusive results are not listed. Calls of active or inactive are those of the source. The call rests on the fitted dose curve; in most records, active means well fitted cell-killing curve with a large enough effect; inconclusive means small, poorly fitted or top-dose-only effect, or effect the other way; inactive means no such curve, though single readings can be large or run the other way.
parameter measured: outcome

Record excerpt, results attached:
O=C(O)c1cccc([N+](=O)[O-])c1 ... inactive
CC(O)COC(C)(C)C (configuration not stated) ... inactive
CC(C)C=O ... inactive
CC=C(Cl)Cl ... inactive
CCOCC(=O)O ... inactive

Prompt: # input compound: C[C@@H]1CC2(OC[C@]3(C)O[C@H]23)O[C@H]2C[C@@]3(C)[C@@H]4CC[C@H]5C(C)(C)C(O[C@@H]6OC[C@@H](O)[C@H](O)[C@H]6O)CC[C@@]56C[C@@]46CC[C@]3(C)[C@@H]12 (some centres not stated) ; wanted: its outcome
Response: inactive

Prompt: # input compound: O=[N+]([O-])c1ccc(CCO)cc1 ; wanted: its outcome
Response: inactive

Prompt: # input compound: C1CCCC1 ; wanted: its outcome
Response: inactive

Prompt: # input compound: Nc1nc(-c2ccccc2)cs1 ; wanted: its outcome
Response: inactive

Prompt: # input compound: CCCC(C)CO (configuration not stated) ; wanted: its outcome
Response: inactive

Prompt: # input compound: Cc1ccc2ncccc2c1 ; wanted: its outcome
Response: inactive

Prompt: # input compound: C(=C/c1ccccc1)/c1ccccc1 ; wanted: its outcome
Response: inactive

Prompt: # input compound: CCNc1ccccc1 ; wanted: its outcome
Response: inactive

Prompt: # input compound: Cc1ccc2nc(-c3ccc(N)cc3)sc2c1S(=O)(=O)O ; wanted: its outcome
Response: inactive

Prompt: # input compound: CNc1ccc([N+](=O)[O-])cc1 ; wanted: its outcome
Response: inactive

Prompt: # input compound: CCOc1ccc(NC(C)=O)cc1N ; wanted: its outcome
Response: inactive

Prompt: # input compound: C=CC(=O)NC(C)C ; wanted: its outcome
Response: inactive

Prompt: # input compound: C=C(C)C1CC=C(C)C(OC(C)=O)C1 (configuration not stated) ; wanted: its outcome
Response: inactive

Prompt: # input compound: c1ccc(Nc2ccccc2)cc1 ; wanted: its outcome
Response: inactive

Prompt: # input compound: O=C1OC(=O)c2c(Br)c(Br)c(Br)c(Br)c21 ; wanted: its outcome
Response: inactive

Prompt: # input compound: Nc1cc(Cl)c(N)c(Cl)c1 ; wanted: its outcome
Response: inactive

Prompt: # input compound: NCCCCCCN ; wanted: its outcome
Response: inactive

Prompt: # input compound: NC(N)=S ; wanted: its outcome
Response: inactive

Prompt: # input compound: O=Cc1ccc(Cl)cc1 ; wanted: its outcome
Response: inactive

Prompt: # input compound: Nc1ccc(Cl)cc1[N+](=O)[O-] ; wanted: its outcome
Response: inactive

Prompt: # input compound: CCCCC(C=O)CC (configuration not stated) ; wanted: its outcome
Response: inactive

Prompt: # input compound: c1ccc2c(c1)ccc1ncccc12 ; wanted: its outcome
Response: inactive

Prompt: # input compound: O=C(O)c1ccccc1[N+](=O)[O-] ; wanted: its outcome
Response: inactive

Prompt: # input compound: O=C(O)c1ccc(C(=O)O)cc1 ; wanted: its outcome
Response: inactive

---

protocol notes: qHTS assay for small molecule antagonists of the retinoid-related orphan receptor gamma (ROR-gamma) signaling pathway - cell viability counter screen (AID 720652);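 further: CHO reporter cells with doxycycline-induced ROR-gamma expression; compound exposure lasted 16 hr before ATP read; on the % scale 0 is the no-effect control and ±100 the full control effect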
measurement context: RORgamma reporter cell line viability counter screen; series mostly up to 92.2 µM
Inconclusive results are not listed. The source made the active and inactive calls. Calls come from the whole dose curve; as a rule, active = well fitted cell-killing curve with a large enough effect in the repeat runs; inconclusive = weak or mixed curves, or effect the other way; inactive = flat fitted curve, though single readings scatter.
Outcome (select one): active, inactive

CCC=O ... inactive
CCNS(=O)(=O)c1ccc(C)cc1 ... inactive
Cc1ccc(C)c(O)c1 ... inactive
Cc1cc([N+](=O)[O-])ccc1N ... inactive
NC(=O)NC(N)=O ... inactive

Prompt: Could you check what this test reported for C=CCCCCCC ?
Response: inactive

Prompt: Could you check what this test reported for Nc1cccc(O)c1 ?
Response: inactive

Prompt: Could you check what this test reported for O=C1OC(=O)c2cc([N+](=O)[O-])ccc21 ?
Response: inactive

Prompt: Could you check what this test reported for Clc1cc(Cl)cc(Cl)c1 ?
Response: inactive

Prompt: Could you check what this test reported for C=C(C)C(=O)OCCCCCCCCCC ?
Response: inactive

Prompt: Could you check what this test reported for Cc1cccc(C)c1[N+](=O)[O-] ?
Response: inactive

Prompt: Could you check what this test reported for C=C(C)OC(C)=O ?
Response: inactive

Prompt: Could you check what this test reported for O=C1NC(=O)c2cc([N+](=O)[O-])ccc21 ?
Response: inactive
